System: Mahlavu
Assay: Antiproliferative activity against human Mahlavu cells after 72 hrs by SRB assay
Assay type: functional, cell-based
Conditions: Homo sapiens, Mahlavu, 72 h; read-out: IC50
result.type: log10 IC50 (log10 of the value in µM)

>  <record.smiles>
Nc1nc(F)nc2c1ncn2[C@@H]1O[C@H](CO)[C@@H](O)[C@@H]1O

>  <observed.measurement>
1.00

$$$$
>  <record.smiles>
Nc1nc(N2CCN(C(c3ccccc3)c3ccccc3)CC2)c2ncn([C@@H]3O[C@H](CO)[C@@H](O)[C@H]3O)c2n1

>  <observed.measurement>
0.85

$$$$
>  <record.smiles>
CC(C)c1ccc(Nc2ncnc3c2ncn3[C@@H]2O[C@H](CO)[C@@H](O)[C@H]2O)cc1

>  <observed.measurement>
1.60

$$$$
>  <record.smiles>
OC[C@H]1O[C@@H](n2cnc3c(NCCC4=CCCCC4)nc(Cl)nc32)[C@H](O)[C@@H]1O

>  <observed.measurement>
1.48

$$$$
>  <record.smiles>
CN(C)c1ccc(Nc2ncnc3c2ncn3[C@@H]2O[C@H](CO)[C@@H](O)[C@H]2O)cc1

>  <observed.measurement>
1.48

$$$$
>  <record.smiles>
O=c1[nH]cc(F)c(=O)[nH]1

>  <observed.measurement>
1.00

$$$$
>  <record.smiles>
OC[C@H]1O[C@@H](n2cnc3c(N4CCN(c5ccc(C(F)(F)F)cc5)CC4)nc(Cl)nc32)[C@H](O)[C@@H]1O

>  <observed.measurement>
0.48

$$$$
>  <record.smiles>
Nc1nc(Cl)nc2c1ncn2[C@H]1C[C@H](O)[C@@H](CO)O1

>  <observed.measurement>
-1.00

$$$$

Origin of values: ChEMBL document CHEMBL4184126
